Cited source: patent US20240174744A1

Target: T1, human iRhom2 (inactive rhomboid protein 2, isoform 1), endogenously expressed on human cells (human, UniProt Q6PJF5 1-856)
T1 sequence: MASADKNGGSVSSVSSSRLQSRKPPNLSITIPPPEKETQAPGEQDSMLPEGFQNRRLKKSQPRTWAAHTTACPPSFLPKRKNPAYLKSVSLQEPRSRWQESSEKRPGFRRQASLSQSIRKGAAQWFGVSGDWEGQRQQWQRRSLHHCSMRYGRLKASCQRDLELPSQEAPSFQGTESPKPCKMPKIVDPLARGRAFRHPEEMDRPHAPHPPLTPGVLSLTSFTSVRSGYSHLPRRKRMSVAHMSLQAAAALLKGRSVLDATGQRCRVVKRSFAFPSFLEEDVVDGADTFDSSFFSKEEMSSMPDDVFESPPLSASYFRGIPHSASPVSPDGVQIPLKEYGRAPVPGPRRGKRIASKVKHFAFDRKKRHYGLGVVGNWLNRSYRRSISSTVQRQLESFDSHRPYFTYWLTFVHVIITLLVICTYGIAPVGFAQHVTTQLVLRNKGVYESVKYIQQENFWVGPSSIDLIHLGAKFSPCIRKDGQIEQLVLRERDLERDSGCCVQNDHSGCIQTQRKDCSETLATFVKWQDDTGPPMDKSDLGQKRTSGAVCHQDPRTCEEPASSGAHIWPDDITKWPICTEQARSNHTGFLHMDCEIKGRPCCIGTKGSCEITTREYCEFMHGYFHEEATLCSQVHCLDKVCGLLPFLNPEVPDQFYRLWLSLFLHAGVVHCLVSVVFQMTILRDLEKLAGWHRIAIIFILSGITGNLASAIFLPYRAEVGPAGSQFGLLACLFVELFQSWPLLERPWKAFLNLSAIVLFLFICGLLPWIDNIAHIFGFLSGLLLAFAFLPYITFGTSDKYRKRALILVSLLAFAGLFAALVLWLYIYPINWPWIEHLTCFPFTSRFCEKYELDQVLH
Assay: cell-based or functional assay
The entries below are paired with their reported inhibition of PMA-induced release of TGFα from PC3 cells, 1 µg/ml.

| binder | result |
| --- | --- |
| antibody 43 (antibody, V domains shown, Mouse IgG, kappa light chain; also called clone #43) VH: QVALKESGPGILQPSQTLSLTCSFSGFSLSTFGMGVGWIRQSSGKGLEWLANIWWDDDKYYNPALKSRLTISKDASKNQAFLKIANVDTADTATYYCARIGNYGSNYWYFDVWGTGTTVTVSS VL: QIVLTQSPAIMSASPGERVTMTCSANSRISYMYWYQQKPGSSPRLLIYDTSNLASGVPVRFSGSGSGTSYSLTISRMEAEDAATYNCQQWSSYPLTFGAGTKLELK | 12.4 % inhibition |
| antibody 44 (antibody, V domains shown, Mouse IgG, kappa light chain; also called clone #44; m44) VH: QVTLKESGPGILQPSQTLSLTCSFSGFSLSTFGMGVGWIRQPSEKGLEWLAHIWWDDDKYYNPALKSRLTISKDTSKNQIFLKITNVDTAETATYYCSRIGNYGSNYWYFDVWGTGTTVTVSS VL: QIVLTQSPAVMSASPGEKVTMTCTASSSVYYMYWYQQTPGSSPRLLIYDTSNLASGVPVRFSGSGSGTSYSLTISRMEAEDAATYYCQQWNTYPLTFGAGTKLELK | 14.1 % inhibition |
| antibody 22 (antibody, V domains shown, Mouse IgG, kappa light chain; also called clone #22; m22) VH: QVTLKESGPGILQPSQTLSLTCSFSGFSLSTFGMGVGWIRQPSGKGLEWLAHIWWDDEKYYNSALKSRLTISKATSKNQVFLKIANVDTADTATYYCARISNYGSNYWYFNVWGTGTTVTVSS VL: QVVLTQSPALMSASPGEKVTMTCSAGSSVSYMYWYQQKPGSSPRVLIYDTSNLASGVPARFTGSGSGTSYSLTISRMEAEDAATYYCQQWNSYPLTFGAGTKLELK | 12.7 % inhibition |

Consider the additional binder presented here.
Data request, read-out inhibition of PMA-induced release of TGFα from PC3 cells, 1 µg/ml, for antibody 16 (antibody, V domains shown, Mouse IgG, kappa light chain; also called clone #16; m16) VH: QVTLKESGPGILQPSQTLSLTCSFSGFSLSTFALGVGWIRQPSGRGLEWLAHIWWDDDKYYNPALKSRLTISKDTSKNHVFLKIANVDTADTATYYCARITTYYYGMDYWGQGTSVTVSS VL: DIVLSQSPATLSVTPGDSVSLFCRASQSIGNHLHWYQQESHASPRLLIKYASQSISGIPSRFSGSGSGTDFTLSINSVETEDFGMYFCQQSYNWPLTFGAGTKLELK 13.9 % inhibition
